src = patent US12465658B2

assay: Solubility of A-5021 by slurry experiments (24 h equilibration, filtration, HPLC of filtrate); assay type: physicochemical; conditions: pH 2.2, aqueous with cosolvent or surfactant or cyclodextrin, thermodynamic from solid, 60% v/v HCl buffer and 40% w/v HPBC, pH 2.2
valueKind: solubility at 24 h (µg/mL)
Report the figure in µg/mL without appending any unit label.

Endpoint output: solubility at 24 h of Nc1nc2c(ncn2C[C@]2(CO)C[C@H]2CO)c(=O)[nH]1 . Value?
6760

----------
test: Vehicle candidates tested to solubilize A-5021 at 5 mg/mL at neutral pH; assay type: physicochemical; conditions: aqueous with cosolvent or surfactant or cyclodextrin; vehicle (i) 80% w/v propylene glycol in water; pH 6.98-7.1 1; read-out: concentration of A-5021 solubilized
valueKind: solubility (µg/mL)
Report the figure in µg/mL without appending any unit label.

Endpoint output: solubility of Nc1nc2c(ncn2C[C@]2(CO)C[C@H]2CO)c(=O)[nH]1 [Formulation A-5021] . Value?
5000

----------
assay: Solubility of A-5021 by slurry experiments (24 h equilibration, filtration, HPLC of filtrate); type: physicochemical; conditions: pH 7, aqueous with cosolvent or surfactant or cyclodextrin, thermodynamic from solid, 60% v/v HCl buffer and 40% w/v HPBC, pH 7
valueKind: solubility at 24 h (µg/mL)
Report the figure in µg/mL without appending any unit label.

Endpoint output: solubility at 24 h of Nc1nc2c(ncn2C[C@]2(CO)C[C@H]2CO)c(=O)[nH]1 . Value?
4910

----------
test: Vehicle candidates tested to solubilize A-5021 at 5 mg/mL at neutral pH; assay type: physicochemical; settings: aqueous with cosolvent or surfactant or cyclodextrin; vehicle (iv) 60% w/v propylene glycol+10% w/v glycerol in water; pH 6.98-7.1 1; read-out: concentration of A-5021 solubilized
valueKind: solubility
Write down the value, and be sure its unit follows.

Endpoint output: solubility of Nc1nc2c(ncn2C[C@]2(CO)C[C@H]2CO)c(=O)[nH]1 [Formulation A-5021] . Value?
5000 µg/mL
